# target or test system: mouse fibroblast cell line transfected with the HER-2 oncogene (3T3/neu) (UniProt P04626, cells depend on it, species not given)
# measurement description: Cell proliferation assay (SRB), 3T3/neu
# Type: cell-based
# condition description: EGFR −, Her-2 +++; 2 days, SRB; read-out: CELL IC50 3T3/NEU (converted)
observable: GI50 (µM)
Response body: numeric value in µM, unit text excluded.

Consider the molecule shown here: CCOc1cc2ncc(C#N)c(Nc3ccc(Sc4nccc(C)n4)c(Cl)c3)c2cc1N What is its recorded GI50?
6.54

Lookup COc1cc2ncc(C#N)c(Nc3ccc(Sc4nc(-c5ccccc5)cs4)c(Cl)c3)c2cc1NC(=O)/C=C/CN(C)C
0.0446

Lookup CCOc1cc2ncc(C#N)c(Nc3ccc4cc[nH]c4c3)c2cc1OCC
2.51

Lookup CCOc1cc2ncc(C#N)c(Nc3ccc(Sc4nc(C)cc(C)n4)c(Cl)c3)c2cc1N
4.44

Lookup COc1cc2ncc(C#N)c(Nc3ccc(Sc4nccs4)c(Cl)c3)c2cc1[N+](=O)[O-]
0.558

Lookup CCOc1cc2ncc(C#N)c(Nc3ccc(Sc4nccc(C)n4)c(Cl)c3)c2cc1NC(=O)/C=C/CN(C)C
0.00523

----------
# Test system: SW620 cells
# measurement description: Cell proliferation assay (SRB), SW620
# Type: cell-based
# condition description: Homo sapiens, SW-620, 48 h; EGFR −, Her-2 −; 2 days, SRB; read-out: CELL IC50 SW620
observable: log10(IC50) (log10 of the value in µg/mL)
In plain terms, each number is the log10 of measured IC50 in µg/mL.

Consider the molecule shown here: CCOc1cc2ncc(C#N)c(Nc3ccc(Sc4nccc(C)n4)c(Cl)c3)c2cc1[N+](=O)[O-] [Example 63] What is its recorded log10(IC50)?
-0.05

Lookup COc1cc2ncc(C#N)c(Nc3ccc(NCc4cccnc4)c(Cl)c3)c2cc1[N+](=O)[O-] [Example 57]
0.51

Lookup CCOc1cc2ncc(C#N)c(Nc3ccc(Sc4nc(-c5ccccc5)cs4)c(Cl)c3)c2cc1NC(=O)/C=C/CN(C)C [Example 72]
-0.27

Lookup CCOc1cc2ncc(C#N)c(Nc3ccc4c(c3)CCC4)c2cc1OCC [Example 26]
-0.53

Lookup COc1cc2c(Nc3ccc(Sc4nccn4C)c(Cl)c3)c(C#N)cnc2cc1OCCCn1ccnn1 [Example 73]
0.57

Lookup COc1cc2ncc(C#N)c(Nc3ccc(Sc4nccn4C)c(Cl)c3)c2cc1NC(=O)/C=C/CN(C)C [Example 37]
-0.37

Lookup CCOc1cc2ncc(C#N)c(Nc3ccc(Sc4nc(C)cc(C)n4)c(Cl)c3)c2cc1N [Example 75]
0.13

Lookup CCOc1cc2ncc(C#N)c(Nc3ccc(Sc4nc(-c5ccccc5)cs4)c(C(F)(F)F)c3)c2cc1NC(=O)/C=C/CN(C)C [Example 69]
-0.22

Lookup CCOc1cc2ncc(C#N)c(Nc3ccc(OCc4cccc(F)c4)c(Cl)c3)c2cc1NC(=O)/C=C/CN(C)C [Example 3]
-0.54

Lookup CCOc1cc2ncc(C#N)c(Nc3ccc(Nc4nnc(C(F)(F)F)s4)c(Cl)c3)c2cc1N [Example 59]
0.14

Lookup CCOc1cc2ncc(C#N)c(Nc3ccc(OCc4ccccc4)c(Cl)c3)c2cc1NC(=O)/C=C/CN(C)C [Example 1]
-0.62

Lookup COc1cc2c(Nc3ccc(Sc4nccn4C)c(Cl)c3)c(C#N)cnc2cc1OCCCN1CCOCC1 [Example 51]
0.34

Lookup CCOc1cc2ncc(C#N)c(Nc3ccc(Sc4nccc(C)n4)c(Cl)c3)c2cc1N [Example 64]
0.30

Lookup COc1cc2ncc(C#N)c(Nc3ccc(Sc4nccs4)c(Cl)c3)c2cc1[N+](=O)[O-] [Example 38]
-0.82

Lookup CCOc1cc2ncc(C#N)c(Nc3ccc(Sc4nccc(C)n4)c(Cl)c3)c2cc1NC(=O)/C=C/CN(C)C [Example 65]
-0.70

Lookup C=CC(=O)Nc1ccc2ncc(C#N)c(Nc3ccc(Sc4nccn4C)c(Cl)c3)c2c1 [Example 21]
0.26

Lookup CCOc1cc2ncc(C#N)c(Nc3ccc(Sc4nc(-c5ccccc5)cs4)c(C(F)(F)F)c3)c2cc1[N+](=O)[O-] [Example 67]
-0.40

Lookup CCOc1cc2ncc(C#N)c(Nc3ccc4c(c3)CCC4=O)c2cc1OCC [Example 28]
-1.61

Lookup CCOc1cc2ncc(C#N)c(Nc3ccc(Sc4nc(-c5ccccc5)cs4)c(C(F)(F)F)c3)c2cc1N [Example 68]
0.49

Lookup CCOc1cc2ncc(C#N)c(Nc3ccc(Sc4nc(C)cc(C)n4)c(Cl)c3)c2cc1NC(=O)/C=C/CN(C)C [Example 66]
-0.49

Lookup COc1cc2ncc(C#N)c(Nc3ccc(Sc4nccs4)c(Cl)c3)c2cc1N [Example 39]
-0.26

Lookup CCOc1cc2ncc(C#N)c(Nc3ccc4cc[nH]c4c3)c2cc1OCC [Example 22]
-0.54

Lookup COc1cc2ncc(C#N)c(Nc3ccc(Sc4nccs4)c(Cl)c3)c2cc1NC(=O)/C=C/CN(C)C [Example 40]
0.05

Lookup COc1cc2ncc(C#N)c(Nc3ccc(Sc4nccn4C)c(Cl)c3)c2cc1[N+](=O)[O-] [Example 35]
0.19

Lookup COc1cc2ncc(C#N)c(Nc3ccc(Sc4nccn4C)c(Cl)c3)c2cc1N [Example 36]
0.50

Lookup CCOc1cc2ncc(C#N)c(Nc3ccc(Nc4nnc(C(F)(F)F)s4)c(Cl)c3)c2cc1[N+](=O)[O-] [Example 52]
0.40

The reported measurements were obtained from patent US7982043B2.
